All figures here come from patent US12162858B2.

biological target: Axl (Homo sapiens, UniProt P30530); assay: LanthaScreen Eu kinase binding assay for Axl; settings: read-out: Axl kinase binding activity (Kd)
Sequence (P30530 26-894): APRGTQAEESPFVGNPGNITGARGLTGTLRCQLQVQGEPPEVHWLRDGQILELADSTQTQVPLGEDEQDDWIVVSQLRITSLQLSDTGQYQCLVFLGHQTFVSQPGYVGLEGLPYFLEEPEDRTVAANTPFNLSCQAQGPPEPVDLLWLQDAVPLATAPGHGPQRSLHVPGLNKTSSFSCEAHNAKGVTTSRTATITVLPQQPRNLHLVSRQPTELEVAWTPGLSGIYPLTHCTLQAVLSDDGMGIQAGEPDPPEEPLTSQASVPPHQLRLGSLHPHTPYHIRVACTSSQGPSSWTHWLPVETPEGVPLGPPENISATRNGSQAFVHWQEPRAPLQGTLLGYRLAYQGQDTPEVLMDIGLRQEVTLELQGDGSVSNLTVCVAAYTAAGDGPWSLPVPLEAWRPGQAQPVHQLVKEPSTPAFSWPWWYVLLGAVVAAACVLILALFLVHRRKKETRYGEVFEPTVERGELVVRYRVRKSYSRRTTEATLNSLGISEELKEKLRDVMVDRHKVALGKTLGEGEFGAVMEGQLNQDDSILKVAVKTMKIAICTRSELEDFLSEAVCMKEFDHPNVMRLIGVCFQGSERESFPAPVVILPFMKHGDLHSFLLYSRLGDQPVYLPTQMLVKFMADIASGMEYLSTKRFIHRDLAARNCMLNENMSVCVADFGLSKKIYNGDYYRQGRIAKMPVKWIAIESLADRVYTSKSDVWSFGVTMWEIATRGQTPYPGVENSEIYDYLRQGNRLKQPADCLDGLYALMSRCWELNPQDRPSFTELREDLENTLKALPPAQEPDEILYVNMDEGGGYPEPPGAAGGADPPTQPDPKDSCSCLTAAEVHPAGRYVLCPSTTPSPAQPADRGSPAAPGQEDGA
REPORTED METRIC: Kd

INSERT INTO assay_data (molecule, reported_result) VALUES
  ('COc1cc2nccc(Oc3ccc(NC(=O)c4nn(CC5COC5)cc4OCC(F)(F)F)cc3)c2cc1OC', '< 100 nM'),
  ('COc1cc2nccc(Oc3ccc(NC(=O)c4nn(CC5COC5)cc4OCC(F)(F)F)cc3C)c2cc1OC', '< 100 nM'),
  ('CNCCn1cc(OCC(F)(F)F)c(C(=O)Nc2ccc(Oc3ccnc4cc(OC)c(OC)cc34)cc2F)n1', '< 100 nM'),
  ('COc1cc2nccc(Oc3ccc(NC(=O)c4sc(C5CC5)cc4OCC(F)(F)F)nc3)c2cc1OC', '100 to 500 nM'),
  ('CCCn1cc(OCC2COC2)c(C(=O)Nc2ccc(Oc3ccnc4cc(OC)c(OC)cc34)cn2)n1', '< 100 nM'),
  ('CCCn1cc(OCC(F)(F)F)c(C(=O)Nc2ccc(Oc3ccnc4cc(OC)c(OC)cc34)nc2)n1', '< 100 nM'),
  ('COc1cc2nccc(Oc3ccc(NC(=O)c4nn(C5CC5)cc4OCCF)nn3)c2cc1OC', '< 100 nM'),
  ('COc1cc2nccc(Oc3ccc(NC(=O)c4nn(CC(C)=O)cc4OCC(F)(F)F)nc3)c2cc1OC', '< 100 nM'),
  ('COc1cc2nccc(Oc3ccc(NC(=O)c4nn(C)cc4OCC(F)(F)F)nc3)c2cc1OC', '< 100 nM'),
  ('CCCn1cc(OCC(F)F)c(C(=O)Nc2ccc(Oc3ccnc4cc(OC)c(OC)cc34)cn2)n1', '< 100 nM'),
  ('COc1cc2nccc(Oc3ccc(NC(=O)c4nn(C5CCN(C)C5)cc4OCC(F)(F)F)cn3)c2cc1OC (stereo not shown)', '100 to 500 nM'),
  ('COc1cc2nccc(Oc3ccc(NC(=O)c4nn(C5CC5)cc4OCC4COC4)nc3)c2cc1OC', '< 100 nM'),
  ('COc1cc2nccc(Oc3ccc(NC(=O)c4nn(C5COC5)cc4OCC(F)(F)F)nc3)c2cc1OC', '< 100 nM'),
  ('COc1cc2nccc(Oc3ccc(NC(=O)c4nn(C5CC5)cc4NCCC(F)(F)F)nn3)c2cc1OC', '< 100 nM'),
  ('CCn1cc(OCC(F)(F)F)c(C(=O)Nc2ccc(Oc3ccnc4cc(OC)c(OC)cc34)cn2)n1', '< 100 nM'),
  ('COc1cc2nccc(Oc3ccc(NC(=O)c4nn(C5CCOC5)cc4OCC(F)(F)F)c(F)c3)c2cc1OC (stereo not shown)', '< 100 nM'),
  ('COc1cc2nccc(Oc3ccc(NC(=O)c4nn(CC(C)O)cc4OCC(F)(F)F)nc3)c2cc1OC (stereo not shown)', '< 100 nM'),
  ('COc1cc2nccc(Oc3ccc(NC(=O)c4nn(CC5COC5)cc4OCC(F)(F)F)cc3F)c2cc1OC', '< 100 nM'),
  ('COc1cc2nccc(Oc3ccc(NC(=O)c4nn(C5CC5)cc4OCC4COC4)nn3)c2cc1OC', '< 100 nM'),
  ('COc1cc2nccc(Oc3ccc(NC(=O)c4nn(CC(C)C)cc4OCC(F)(F)F)nc3)c2cc1OC', '< 100 nM'),
  ('CNCCOc1cn(C2CC2)nc1C(=O)Nc1ccc(Oc2ccnc3cc(OC)c(OC)cc23)cn1', '≥ 500 nM'),
  ('COc1cc2nccc(Oc3ccc(NC(=O)c4nn(C5CC5)cc4OCC4CNC4)nc3)c2cc1OC', '100 to 500 nM');
